biological target: human Edg-1(S1P1) (Homo sapiens, UniProt P21453); construct: expressed in transfected cells; host or cells: HEK-293; assay: Cell system binding test: inhibition of [3H]-S1P binding to Edg-1(S1P1) gene transferred HEK-293 cells; conditions: test compound 10^-5 M, [3H]-S1P 10 nM, 1 hour, read-out: Edg-1(S1P1) binding inhibition rate (cell system binding test)
Sequence (P21453 whole entry): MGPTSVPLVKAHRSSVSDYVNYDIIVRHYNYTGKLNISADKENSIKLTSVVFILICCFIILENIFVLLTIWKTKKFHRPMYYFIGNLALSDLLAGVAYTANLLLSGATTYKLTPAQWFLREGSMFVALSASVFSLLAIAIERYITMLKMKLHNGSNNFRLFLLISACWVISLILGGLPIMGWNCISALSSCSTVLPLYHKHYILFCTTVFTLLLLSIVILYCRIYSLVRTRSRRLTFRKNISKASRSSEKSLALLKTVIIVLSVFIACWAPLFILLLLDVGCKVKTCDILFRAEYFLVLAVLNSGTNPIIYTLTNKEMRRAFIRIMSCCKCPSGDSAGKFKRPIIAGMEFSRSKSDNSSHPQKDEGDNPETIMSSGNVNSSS
Assign inhibition at 10 µM to each entry below.
One number for each entry, in %.

Below, 2 compounds whose answers are already recorded.
# COMPOUND, VALUE MEASURED
rows = [
    ("CCn1c(OC(C)C)nnc1[C@@H](C)NS(=O)(=O)c1cccc(Cl)c1C [Compound 471]", 96.5),
    ("CCn1c(OCC(F)(F)F)nnc1[C@@H](C)NS(=O)(=O)c1ccc2nsnc2c1 [Compound 499]", 107),
]

Provide the reported inhibition at 10 µM of each entry below, same order.
1. CCn1c(OCC(F)(F)F)nnc1[C@@H](C)NS(=O)(=O)c1ccc(F)cc1 [Compound 512]
2. CCn1c(OCC(F)(F)F)nnc1[C@@H](C)NS(=O)(=O)c1cc(Cl)c(Cl)s1 [Compound 510]
3. CCn1c(OC(C)C)nnc1[C@@H](C)NS(=O)(=O)c1cc(Cl)c(Cl)s1 [Compound 475]
4. CCn1c(OCC(F)(F)F)nnc1[C@@H](C)NS(=O)(=O)c1cccc(Br)c1 [Compound 491]
5. CCn1c(OCC(F)(F)F)nnc1[C@@H](C)NS(=O)(=O)c1ccc(I)cc1 [Compound 511]

Reply:
105
106
97.9
88.9
99

Query: Which inhibition at 10 µM reading was recorded for the compound CCn1c(OC(C)C)nnc1[C@@H](C)NS(=O)(=O)c1ccc(F)c(Cl)c1 [Compound 456] ?
Reply: 87.4

###

target: human Edg-1(S1P1) (Homo sapiens); construct: expressed in transfected cells; host or cells: HEK-293; experiment: Cell system binding test: inhibition of [3H]-S1P binding to Edg-1(S1P1) gene transferred HEK-293 cells; conditions: 10 μM compound, [3H]-S1P 10 nM, read-out: Cell system binding test % inhibition (10 μM)
Please use Criterion met whenever inhibition at 10 µM is not below 90%, and Criterion not met whenever it is.

# MOLECULE, ASSIGNED CLASS
measured = [
    ("CCn1c(SCc2ccc(C)cc2)nnc1[C@@H](C)NS(=O)(=O)c1ccc(Cl)cc1", "Criterion met"),
    ("CCn1c(OC2CCC2)nnc1[C@@H](C)NS(=O)(=O)c1ccc(Cl)cc1", "Criterion met"),
    ("C=CCCCOc1nnc([C@@H](C)NS(=O)(=O)c2ccc(Cl)cc2)n1CC", "Criterion met"),
]

Query: Is reported inhibition at 10 µM greater than or equal to 90% here: CCn1c(SCc2ccc(-c3ccccc3)cc2)nnc1[C@@H](C)NS(=O)(=O)c1ccc(Cl)cc1
Reply: Criterion met

###

target: human Edg-1(S1P1) (Homo sapiens); construct: expressed in transfected cells; host or cells: HEK-293; assay: Membrane system binding test: inhibition of [33P]-S1P binding to the membrane fraction of Edg-1(S1P1) gene transferred HEK-293 cells; settings: 10 μM compound; [33P]-S1P 0.1 nM; membrane fraction of Edg-1(S1P1) gene transferred HEK-293 cells; read-out: Membrane system binding test % inhibition (10 μM)
OBSERVED PROPERTY: inhibition at 10 µM (%)
Answers are plain numbers, in %.

# TEST SMILES, UNIT INFO, VALUE MEASURED
records = [
    ("CCn1c(OC)nnc1[C@@H](C)NS(=O)(=O)c1ccc(C(C)C)cc1", "%", 48.1),
    ("CCn1c(OC)nnc1[C@@H](C)NS(=O)(=O)c1cc(C(=O)OC)c(C)o1", "%", 58.1),
    ("CCn1c(OC)nnc1[C@@H](C)NS(=O)(=O)c1ccc2nsnc2c1", "%", 99.4),
]

Provide the reported inhibition at 10 µM of each entry below, same order.
1. CCn1c(OC)nnc1[C@@H](C)NS(=O)(=O)c1ccccc1[N+](=O)[O-]
2. CCn1c(SCCOC)nnc1[C@@H](C)NS(=O)(=O)c1ccc(Cl)cc1

Reply:
40.3
64.4

Provide the reported inhibition at 10 µM of each entry below, same order.
1. CCn1c(OC)nnc1[C@@H](C)NS(=O)(=O)c1cccc(OC(F)(F)F)c1
2. CCn1c(OC)nnc1[C@@H](C)NS(=O)(=O)c1ccc(F)cc1

Reply:
1: 71.9; 2: 70.4

Query: Which inhibition at 10 µM reading was recorded for the compound CCn1c(SC2CCC2)nnc1[C@@H](C)NS(=O)(=O)c1ccc(Cl)cc1 ?
Reply: 104

###

target: human Edg-1(S1P1) (Homo sapiens); construct: expressed in transfected cells; host or cells: HEK-293; assay: Membrane system binding test: inhibition of [33P]-S1P binding to the membrane fraction of Edg-1(S1P1) gene transferred HEK-293 cells; conditions: 10 μM compound; [33P]-S1P 0.1 nM; membrane fraction of Edg-1(S1P1) gene transferred HEK-293 cells
Please use YES whenever Membrane system binding test % inhibition (10 μM) is not below 70%, and NO whenever it is.

Would you please look over these solved cases?
# MOLECULE, TARGET OF ASSAY, ASSIGNED CLASS
records = [
    ("C=CCSc1nnc([C@@H](CC)NS(=O)(=O)c2ccc(Cl)cc2)n1CCC [Compound 113]", "human Edg-1(S1P1) (Homo sapiens)", "NO"),
    ("CCn1c(OC)nnc1[C@@H](C)NS(=O)(=O)c1cc(F)c(Br)cc1F [Compound 449]", "human Edg-1(S1P1) (Homo sapiens)", "NO"),
    ("C=CCSc1nnc([C@@H](CC)NS(=O)(=O)c2ccc(Cl)cc2)n1C [Compound 106]", "human Edg-1(S1P1) (Homo sapiens)", "NO"),
]

Query: Is reported Membrane system binding test % inhibition (10 μM) greater than or equal to 70% here: CCn1c(OC)nnc1[C@@H](C)NS(=O)(=O)c1ccc(Br)c(Br)c1 [Compound 448]
Reply: YES

Query: // next record CCOc1nnc([C@@H](C)NS(=O)(=O)c2cccc(OC)c2)n1CC [Compound 447]
Reply: YES

###

target: human Edg-1(S1P1) (Homo sapiens, UniProt P21453); construct: expressed in transfected cells; host or cells: HEK-293; experiment: Cell system binding test: inhibition of [3H]-S1P binding to Edg-1(S1P1) gene transferred HEK-293 cells; settings: 10 μM compound, [3H]-S1P 10 nM, read-out: Cell system binding test % inhibition (10 μM)
OBSERVED PROPERTY: inhibition at 10 µM
Provide the measurement as a number trailed by its unit.

Below, 5 compounds whose answers are already recorded.
# COMPOUND, VALUE MEASURED
measured = [
    ("CCOc1nnc([C@@H](C)NS(=O)(=O)c2cccc(Cl)c2C)n1CC", "97.9%"),
    ("CCOc1nnc([C@@H](C)NS(=O)(=O)c2cc(F)cc(F)c2)n1CC", "93.8%"),
    ("CCOc1nnc([C@@H](C)NS(=O)(=O)c2ccc(CC)cc2)n1CC", "91.4%"),
    ("CCn1c(SCCCC#Cc2ccccc2)nnc1[C@@H](C)NS(=O)(=O)c1ccc(Cl)cc1", "84.8%"),
    ("CCn1c(OC2CCCCC2)nnc1[C@@H](C)NS(=O)(=O)c1ccc(Cl)cc1", "104%"),
]

Provide the reported inhibition at 10 µM of each entry below, same order.
1. CCn1c(OCCCC(F)(F)F)nnc1[C@@H](C)NS(=O)(=O)c1ccc(Cl)cc1
2. CCn1c(SC2CCCC2)nnc1[C@@H](C)NS(=O)(=O)c1ccc(Cl)cc1
3. CCn1c(OC)nnc1[C@@H](C)NS(=O)(=O)c1cccc(OC)c1
4. CCn1c(OC)nnc1[C@@H](C)NS(=O)(=O)CCCOc1ccc(OC)cc1
5. CCn1c(OC)nnc1[C@@H](C)NS(=O)(=O)c1cc2ccccc2s1
6. CCn1c(SCCOCc2ccccc2)nnc1[C@@H](C)NS(=O)(=O)c1ccc(Cl)cc1
7. CCn1c(OC)nnc1[C@@H](C)NS(=O)(=O)c1cc(C)ccc1F
8. CCn1c(S)nnc1[C@@H](C)NS(=O)(=O)c1ccc(Cl)cc1

Reply:
1: 88.6%; 2: 90.1%; 3: 96.3%; 4: 68.5%; 5: 105%; 6: 92.7%; 7: 93.5%; 8: 60.6%

Provide the reported inhibition at 10 µM of each entry below, same order.
1. CCn1c(SCc2ccccn2)nnc1[C@@H](C)NS(=O)(=O)c1ccc(Cl)cc1
2. CCn1c(SCCCN2CCCC2=O)nnc1[C@@H](C)NS(=O)(=O)c1ccc(Cl)cc1
3. CCn1c(OC)nnc1[C@@H](C)NS(=O)(=O)CCN1C(=O)c2ccccc2C1=O

Reply:
1: 93.7%; 2: 84.7%; 3: 23.9%
